- System: blackgrass
- Procedure text: Test D postemergence
- Assay type: in vivo, Alopecurus myosuroides
- Settings: 31 g ai/ha, scale 0 to 100
- Text: […]
Task for the reader: assign each of the following compounds its reported Plant response rating: Blackgrass.
The answer should be written as a number, with no unit following it.

GET /values?readout=Plant response rating: Blackgrass&system=blackgrass&item= CCc1nc(-c2ccc(C(F)(F)F)cc2)nn1Cc1ccnc(C(F)(F)F)c1
10

How about this compound: Fc1ccc(-c2nc(OCC(F)(F)F)n(Cc3ccnc(C(F)(F)F)c3)n2)cc1
60

How about this compound: FC(F)(F)COc1nc(-c2ccc(Cl)cc2)nn1Cc1ccnc(C(F)(F)F)c1
65

How about this compound: FC(F)(F)COc1nc(-c2ccccc2)nn1Cc1ccnc(C(F)(F)F)c1
35

How about this compound: COc1nc(-c2ccc(Cl)cc2)nn1Cc1ccnc(C(F)(F)F)c1
35

----------
- System: foxtail, giant
- Procedure text: Test A preemergence
- Assay type: in vivo, Setaria faberii
- Settings: 125 g ai/ha, 0 to 100 scale (0 no effect, 100 complete control)
Please assign N whenever Plant response rating, Foxtail, Giant is at or above 80, and Y whenever it is below.

A record lists CCCn1nc(-c2ccc(F)cc2)nc1C(O)c1ccnc(C(F)(F)F)c1 (stereo not drawn) [Compound 16] . Is its Plant response rating, Foxtail, Giant below 80?
Y

How about this compound: Cc1nc(-c2ccc(F)cc2)nn1Cc1ccnc(C(F)(F)F)c1 [Compound 38]
N

How about this compound: Cc1nc(-c2ccc(OC(F)(F)F)cc2)nn1Cc1ccnc(C(F)(F)F)c1 [Compound 37]
Y

How about this compound: CCCOc1nc(-c2ccc(C(F)(F)F)cc2)nn1Cc1ccnc(C(F)(F)F)c1 [Compound 41]
N

How about this compound: CCc1nc(-c2ccncc2)nn1Cc1ccnc(C(F)(F)F)c1 [Compound 39]
Y

How about this compound: Fc1ccc(-c2nc(OCC(F)(F)F)n(Cc3ccnc(C(F)(F)F)c3)n2)cc1 [Compound 30]
N

How about this compound: COc1nc(-c2ccc(OC(F)(F)F)cc2)nn1Cc1ccnc(C(F)(F)F)c1 [Compound 40]
Y

How about this compound: COc1nc(-c2ccc(Cl)cc2)nn1Cc1ccnc(C(F)(F)F)c1 [Compound 28]
N

----------
- System: kochia
- Procedure text: Test D preemergence
- Assay type: in vivo, Kochia scoparia
- Settings: 125 g ai/ha, scale 0 to 100
Metric name: Plant response rating: Kochia
The answer should be written as a number, with no unit following it.

I have this molecule here, FC(F)(F)COc1nc(-c2ccccc2)nn1Cc1ccnc(C(F)(F)F)c1 , and I need its recorded Plant response rating: Kochia.
90

How about this molecule: FC(F)(F)COc1nc(-c2ccc(Cl)cc2)nn1Cc1ccnc(C(F)(F)F)c1
95

How about this molecule: COc1nc(-c2ccc(Cl)cc2)nn1Cc1ccnc(C(F)(F)F)c1
95

How about this molecule: CCc1nc(-c2ccc(C(F)(F)F)cc2)nn1Cc1ccnc(C(F)(F)F)c1
100

How about this molecule: CCOc1nc(-c2ccc(F)cc2)nn1Cc1ccnc(C(F)(F)F)c1
100

----------
- Tested on: velvetleaf
- Procedure text: Test C postemergence
- Format: in vivo, Abutilon theophrasti
- Settings: 250 g ai/ha
Metric name: Plant response rating (scale of 0 to 100 where 0 is no effect and 100 is complete control)

I have this compound here, CCOc1nc(-c2ccccc2)nn1Cc1ccnc(C(F)(F)F)c1 , and I need its recorded Plant response rating (scale of 0 to 100 where 0 is no effect and 100 is complete control).
70

How about this compound: CCOc1nc(-c2ccc(F)cc2)nn1Cc1ccnc(C(F)(F)F)c1
90

How about this compound: COc1nc(-c2ccc(C(F)(F)F)cc2)nn1Cc1ccnc(C(F)(F)F)c1
75

How about this compound: CCc1nc(-c2ccc(C(F)(F)F)cc2)nn1Cc1ccnc(C(F)(F)F)c1
75

----------
- Tested on: ragweed
- Procedure text: Test A preemergence
- Assay type: in vivo, Ambrosia elatior
- Settings: 125 g ai/ha, 0 to 100 scale (0 no effect, 100 complete control)
Task for the reader: assign each of the following compounds its reported Plant response rating, Ragweed.
The answer should be written as a number, with no unit following it.

I have this compound here, Fc1ccc(-c2nc(OCC(F)(F)F)n(Cc3ccnc(C(F)(F)F)c3)n2)cc1 , and I need its recorded Plant response rating, Ragweed.
80

How about this compound: CCOc1nc(-c2ccccc2)nn1Cc1ccnc(C(F)(F)F)c1
90

How about this compound: FC(F)(F)COc1nc(-c2ccc(Cl)cc2)nn1Cc1ccnc(C(F)(F)F)c1
50

How about this compound: COc1nc(-c2ccccc2)nn1Cc1ccnc(C(F)(F)F)c1
0

How about this compound: COc1nc(-c2ccc(C(F)(F)F)cc2)nn1Cc1ccnc(C(F)(F)F)c1
20

----------
- Tested on: velvetleaf
- Procedure text: Test C postemergence
- Assay type: in vivo, Abutilon theophrasti
- Settings: 125 g ai/ha
Would you please tag the item t when its Plant response rating (scale of 0 to 100 where 0 is no effect and 100 is complete control) is 70 or above, and f when it is below?

Dear colleague, could you confirm whether CCCOc1nc(-c2ccccc2)nn1Cc1ccnc(C(F)(F)F)c1 has Plant response rating (scale of 0 to 100 where 0 is no effect and 100 is complete control) at or above 70?
f

How about this compound: Fc1ccc(-c2nc(OCC(F)(F)F)n(Cc3ccnc(C(F)(F)F)c3)n2)cc1
t

How about this compound: FC(F)(F)COc1nc(-c2ccccc2)nn1Cc1ccnc(C(F)(F)F)c1
f

How about this compound: CCOc1nc(-c2ccc(F)cc2)nn1Cc1ccnc(C(F)(F)F)c1
t

----------
Task for the reader: assign each of the following compounds its reported Plant response rating, Foxtail, Giant.
- System: foxtail, giant
- Procedure text: Test A postemergence
- Format: in vivo, Setaria faberii
- Settings: 500 g ai/ha, 0 to 100 scale (0 no effect, 100 complete control), approx. 10 d
- Description: […]
The answer should be written as a number, with no unit following it.

I have this compound here, CCCc1nc(-c2ccc(C(F)(F)F)cc2)nn1Cc1ccnc(C(F)(F)F)c1 , and I need its recorded Plant response rating, Foxtail, Giant.
90

How about this compound: COc1nc(-c2ccc(Cl)cc2)nn1Cc1ccnc(C(F)(F)F)c1
90

How about this compound: CCCc1nc(-c2ccc(F)c(F)c2)nn1Cc1ccnc(C(F)(F)F)c1
90

How about this compound: CCc1nc(-c2ccc(F)cc2)nn1Cc1ccnc(C(F)(F)F)c1
90

How about this compound: CCCn1nc(-c2ccc(F)cc2)nc1C(O)c1ccnc(C(F)(F)F)c1 (stereo not drawn)
70

How about this compound: CSc1nc(-c2ccc(F)cc2)nn1Cc1ccnc(C(F)(F)F)c1
20

How about this compound: CCCc1nc(-c2ccc(Cl)cc2)nn1Cc1ccnc(C(F)(F)F)c1
80

How about this compound: COc1nc(-c2ccccc2)nn1Cc1ccnc(C(F)(F)F)c1
90

How about this compound: Cn1nc(-c2ccc(F)cc2)nc1Cc1ccnc(C(F)(F)F)c1
90

----------
- Tested on: lambsquarters
- Procedure text: Test C preemergence
- Type: in vivo, Chenopodium album
- Settings: Lambsquarters, preemergence, 125 g ai/ha
Metric name: Plant response rating (scale of 0 to 100 where 0 is no effect and 100 is complete control)
The answer should be written as a number, with no unit following it.

GET /values?readout=Plant response rating (scale of 0 to 100 where 0 is no effect and 100 is complete control)&system=lambsquarters&item= CCc1nc(-c2ccc(C(F)(F)F)cc2)nn1Cc1ccnc(C(F)(F)F)c1
98

How about this compound: FC(F)(F)COc1nc(-c2ccc(Cl)cc2)nn1Cc1ccnc(C(F)(F)F)c1
100

How about this compound: CCCc1nc(-c2ccc(F)cc2)nn1Cc1ccnc(C(F)(F)F)c1
98

How about this compound: CCOc1nc(-c2ccc(F)cc2)nn1Cc1ccnc(C(F)(F)F)c1
100

----------
Task for the reader: assign each of the following molecules its reported Plant response rating (scale of 0 to 100 where 0 is no effect and 100 is complete control).
- System: oat, wild
- Procedure text: Test C postemergence
- Assay type: in vivo, Avena fatua
- Settings: 31 g ai/ha
The answer should be written as a number, with no unit following it.

I have this molecule here, CCOc1nc(-c2ccccc2)nn1Cc1ccnc(C(F)(F)F)c1 [Compound 27] , and I need its recorded Plant response rating (scale of 0 to 100 where 0 is no effect and 100 is complete control).
10

How about this molecule: CCOc1nc(-c2ccc(C(F)(F)F)cc2)nn1Cc1ccnc(C(F)(F)F)c1 [Compound 35]
45

How about this molecule: CCOc1nc(-c2ccc(F)cc2)nn1Cc1ccnc(C(F)(F)F)c1 [Compound 8]
45

How about this molecule: FC(F)(F)COc1nc(-c2ccc(Cl)cc2)nn1Cc1ccnc(C(F)(F)F)c1 [Compound 31]
30
